Target: UniProt Q9Y5Y4
Sequence (Q9Y5Y4 1-395): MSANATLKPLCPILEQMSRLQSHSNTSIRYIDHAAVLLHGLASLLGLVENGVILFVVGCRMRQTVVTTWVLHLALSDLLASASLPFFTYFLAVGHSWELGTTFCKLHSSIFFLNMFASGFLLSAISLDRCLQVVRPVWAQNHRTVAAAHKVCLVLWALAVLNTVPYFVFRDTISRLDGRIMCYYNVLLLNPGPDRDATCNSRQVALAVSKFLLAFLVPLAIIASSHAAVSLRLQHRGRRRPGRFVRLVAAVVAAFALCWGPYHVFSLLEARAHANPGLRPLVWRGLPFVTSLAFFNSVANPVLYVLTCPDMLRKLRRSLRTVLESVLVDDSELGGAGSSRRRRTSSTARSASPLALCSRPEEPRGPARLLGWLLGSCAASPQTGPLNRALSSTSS
pKi: −log10 of the molar value.
// reported pKi per item

CN(C(=O)Cc1ccc(F)cc1Br)[C@@H]1CCc2c(CC(=O)O)c3ccccc3n2C1 | 7.00 to 7.30

Turning now to a further compound:
Q) Requested field: pKi. Item: `CN(C(=O)CCc1ccccc1)[C@@H]1CCc2c(CC(=O)O)c3ccccc3n2C1`
A) 8.00 to 8.30
